- EXPERIMENTAL_PROTOCOL: soluble on expression in E. coli; label from the status in PepcDB or PDB records
MEASUREMENT_LABEL: soluble on expression in E. coli

chain_sequence=MGSDKIHHHHHHMLITCSESGIDFGKSLSTYIHEYLGLNRNCRLFEVKQACYSGTAGFQMAVNFILSQTSPGAKALVIASDISRFLIAEGGDALSEDWSYAEPSAGAGAVAVLVGENPEVFQIDPGANGYYGYEVMDTCRPIPDSEAGDSDLSLMSYLDCCEQTFLEYQKRVPGANYQDTFQYLAYHTPFGGMVKGAHRTMMRKVAKVKTSGIETDFLTRVKPGLNYCQRVGNIMGAALFLALASTIDQGRFDTPKRIGCFSYGSGCCSEFYSGITTPQGQERQRTFGIEKHLDRRYQLSMEEYELLFKGSGMVRFGTRNVKLDFEMIPGIMQSTQEKPRLFLEEISEFHRKYRWIS measured_result="not soluble"
chain_sequence=MATAATTASRSTTAGTSSTMGTPATTSAASRTTTTGTTTTMGQLIT measured_result="not soluble"

Measured values drawn from the DeepSol protein solubility set for this set.
